test.summary: qHTS RealTime-Glo MT Cell Viability Assay in HEK293 cells - 24 hour (AID 1224886); further: nearly all actives have a fitted effect of over 50% in size
cond: RealTime-Glo luminescence; series mostly up to 76.8 µM
Results filed as inconclusive are left out. Calls of active or inactive are those of the source. The call rests on the fitted dose curve; in most records, active means well fitted cell-killing curve with a large enough effect in the repeat runs; inconclusive means weak or mixed curves, or effect the other way; inactive means flat fitted curve, though single readings scatter.
Possible outcomes: active, inactive

>>> class_label("CC(CCC(=O)O)C(=O)O (stereo not given)")
"inactive"
>>> class_label("CC1=C(Br)C(=O)C(Br)=C/C1=C(/c1ccccc1S(=O)(=O)O)c1cc(Br)c(O)c(Br)c1C")
"inactive"
>>> class_label("CN1C[C@H](C(=O)N[C@]2(C)O[C@@]3(O)[C@@H]4CCCN4C(=O)[C@H](Cc4ccccc4)N3C2=O)C[C@@H]2c3cccc4[nH]cc(c34)C[C@H]21")
"active"
>>> class_label("CN1CCCC(n2nc(Cc3ccc(Cl)cc3)c3ccccc3c2=O)CC1 (stereo not given)")
"active"
>>> class_label("COc1ccc(OC(=O)N(CC(=O)O)Cc2ccc(OCCc3nc(-c4ccccc4)oc3C)cc2)cc1")
"inactive"
>>> class_label("CC(C)(C)CC(=O)OCC(=O)[C@@]1(O)CC[C@H]2[C@@H]3CCC4=CC(=O)C=C[C@]4(C)[C@H]3[C@@H](O)C[C@@]21C")
"active"
>>> class_label("O=C1C(=O)c2ccccc2C(O)=C1C1CCC(c2ccc(Cl)cc2)CC1 (stereo not given)")
"inactive"
>>> class_label("CCCCCCCCN")
"inactive"
>>> class_label("COc1cc(Nc2c(C#N)cnc3cc(OCCCN4CCN(C)CC4)c(OC)cc23)c(Cl)cc1Cl")
"active"
>>> class_label("C=C(C)CCCC(C)CCO (stereo not given)")
"inactive"
